Listed below: ΔTm values for each entry.
target: Death-associated protein kinase 3 (Homo sapiens) (UniProt O43293)
Sequence (O43293 whole entry, looked up): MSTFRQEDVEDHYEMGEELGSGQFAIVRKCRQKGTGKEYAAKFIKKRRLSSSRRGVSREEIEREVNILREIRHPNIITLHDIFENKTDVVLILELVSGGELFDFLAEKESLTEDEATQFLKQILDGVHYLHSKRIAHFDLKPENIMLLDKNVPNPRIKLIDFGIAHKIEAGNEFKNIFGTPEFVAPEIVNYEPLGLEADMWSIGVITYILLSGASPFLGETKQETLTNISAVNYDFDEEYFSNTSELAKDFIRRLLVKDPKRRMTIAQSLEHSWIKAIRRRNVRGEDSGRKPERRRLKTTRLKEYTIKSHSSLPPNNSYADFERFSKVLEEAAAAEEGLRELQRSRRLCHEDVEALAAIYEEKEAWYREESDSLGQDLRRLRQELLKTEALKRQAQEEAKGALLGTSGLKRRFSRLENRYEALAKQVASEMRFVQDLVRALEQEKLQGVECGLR
Property: ΔTm (°C)

* O=C1NC(=O)c2c1c1c3ccccc3[nH]c1n1cncc21 [ISOGRANULATIMIDE] | 5.3
* Cn1cc(C2=C(c3cn(CCCN)c4ccccc34)C(=O)NC2=O)c2ccccc21 | 2.5
* Cl.Cn1cc(C2=C(c3ccc4cc5n(c4c3)CCC(CN)C5)C(=O)NC2=O)c2ccccc21 (stereo not given) | 0.7
* CCN(CC)CCNC(=O)c1c(C)[nH]c(/C=C2\C(=O)Nc3ccc(F)cc32)c1C | 0.3
* CC(C)n1cnc2c(NCc3ccccc3O)nc(NCCCO)nc21 | 0.2
* CC(C)(C)n1nc(-c2cccc3ccccc23)c2c(N)ncnc21 | -0.8
* O=c1cc(N2CCOCC2)oc2c(-c3ccccc3)cccc12 | 1.4
* Oc1ccc(-c2nc(-c3ccc(F)cc3)c(-c3ccncc3)[nH]2)cc1 | 0.9
* CSc1nc(-c2ccc(F)cc2)c(-c2ccnc(NC(C)c3ccccc3)c2)[nH]1 (racemic) | 2.4
* Brc1c(Br)c(Br)c2[nH]nnc2c1Br | 3.6
* N#C/C(=C1/Nc2ccccc2S1)c1ccnc(NCCc2cccnc2)n1 | 1.6
* N#C/C(=C\c1ccc(O)c(O)c1)C(=O)Nc1ccccc1 | 1.4
* O=C(O)c1cc(N(Cc2ccccc2O)Cc2cc(O)ccc2O)ccc1O | 0.8
* O=Nc1c(-c2c(O)[nH]c3ccccc23)[nH]c2ccccc12 | 1.2
* COC(=O)[C@]1(O)C[C@@H]2O[C@@]1(C)n1c3ccccc3c3c4c(c5c6ccccc6n2c5c31)C(=O)NC4 (single isomer, unassigned) | 4.6
* COc1ccc(S(=O)(=O)N(CCO)c2ccccc2CN(C)C/C=C/c2ccc(Cl)cc2)cc1 | 0.2
* CCN1/C(=C/C(C)=O)Sc2ccc(OC)cc21 | 0.9
* Nc1cc2ncnc(Nc3cccc(Br)c3)c2cc1N | 2.1
* CCCNC(=O)Nc1ccc(Oc2ncnc3cc(OC)c(OC)cc23)cc1Cl | 1.3
* C[S+]([O-])c1ccc(-c2nc(-c3ccc(F)cc3)c(-c3ccncc3)[nH]2)cc1 (stereo not given) | -0.4

----------
Recorded ΔTm values for a group of compounds are listed next.
molecular target: Lymphokine-activated killer T-cell-originated protein kinase (Homo sapiens) (UniProt Q96KB5)
Sequence (Q96KB5 whole entry): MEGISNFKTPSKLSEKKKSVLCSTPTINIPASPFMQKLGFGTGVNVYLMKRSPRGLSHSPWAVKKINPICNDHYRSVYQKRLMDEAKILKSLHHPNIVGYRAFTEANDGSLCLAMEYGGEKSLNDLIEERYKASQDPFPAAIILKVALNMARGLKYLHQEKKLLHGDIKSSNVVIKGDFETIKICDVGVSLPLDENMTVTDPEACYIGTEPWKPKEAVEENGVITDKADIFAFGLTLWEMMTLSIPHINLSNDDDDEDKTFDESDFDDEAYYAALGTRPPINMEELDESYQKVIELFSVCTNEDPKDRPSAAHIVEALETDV
Property: ΔTm (°C)

- O=c1ccc2ccc(O)c(O)c2o1: -0.4
- COc1cc2ncnc(Nc3cccc(Br)c3)c2cc1OC: 0.3
- COc1cc2ncnc(Nc3ccc(F)c(Cl)c3)c2cc1OCCCN1CCOCC1: 0.6
- COC1=C2C[C@@H](C)C[C@H](OC)[C@H](O)[C@@H](C)/C=C(\C)[C@H](OC(N)=O)[C@@H](OC)/C=C\C=C(/C)C(=O)NC(=CC1=O)C2=O: 0.6
- Nc1nc(Nc2ccc(S(N)(=O)=O)cc2)nn1C(=S)Nc1c(F)cccc1F: -0.2
- NC1=N/C(=C2/CCNC(=O)c3[nH]ccc32)C(=O)N1: -0.4
- O=C1Nc2ccccc2/C1=C\c1ccc[nH]1: -0.5
- Cc1ccc(NC(=O)c2cccc(N(C)C)c2)cc1NC(=O)c1ccc(O)cc1: 0.4
- Oc1ccc(-c2nc(-c3ccc(F)cc3)c(-c3ccncc3)[nH]2)cc1: 0.3
- COc1nccc(-c2c(-c3ccc(F)cc3)ncn2[C@H]2CC[C@H](O)CC2)n1: 0.7
- CC(C)(C)n1nc(-c2ccc(Cl)cc2)c2c(N)ncnc21: 0.7
- O=C(O)Cc1ccc(O)c([N+](=O)[O-])c1: 0.6

Each recorded value in this set is attributed to ChEMBL document CHEMBL1145498.
